Readings of inhibition at 1 µM for the listed molecules
# test.system: CCR3 (Homo sapiens)
# Construct: Human eosinophils were isolated from EDTA anticoagulated peripheral blood; endogenous in cells; host or cells: human peripheral blood eosinophils
# Sequence (P51677 1-355): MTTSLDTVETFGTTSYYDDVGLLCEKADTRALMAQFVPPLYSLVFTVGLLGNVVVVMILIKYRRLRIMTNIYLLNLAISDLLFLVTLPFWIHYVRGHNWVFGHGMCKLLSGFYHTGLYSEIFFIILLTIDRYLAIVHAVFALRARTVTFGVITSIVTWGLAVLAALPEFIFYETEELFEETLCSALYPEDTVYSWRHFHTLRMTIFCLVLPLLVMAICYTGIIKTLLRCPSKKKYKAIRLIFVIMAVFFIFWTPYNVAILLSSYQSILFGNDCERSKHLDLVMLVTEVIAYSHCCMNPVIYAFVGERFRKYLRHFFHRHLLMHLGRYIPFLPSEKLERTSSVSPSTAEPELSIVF
# test.name: Human eosinophil chemotaxis (eotaxin mediated)
# Format: cell-based
# experimental.context: read-out: % inhibition at 3 nM eotaxin (1 uM compound), human eosinophils
Where a name gives a salt, the structure may show the parent alone.
State the answer as a number, implicitly in %.

molecule=N#Cc1ccc(OC2CCN(C[C@H](O)CNC(=O)c3c[nH]c(=O)c4ccccc34)CC2)cc1Cl unit_annotation=% assay_result=103
molecule=CS(=O)(=O)c1ccc2c(C(=O)NC[C@@H](O)CN3CCC(Oc4ccc(C#N)c(Cl)c4)CC3)c[nH]c(=O)c2c1 unit_annotation=% assay_result=99
molecule=CN(C[C@@H](O)CN1CCC(Oc2ccc(Cl)c(Cl)c2)CC1)C(=O)c1n[nH]c2ccccc12 unit_annotation=% assay_result=105
molecule="Cc1c(Cl)ccc(OC2CCN(C[C@H](O)CNC(=O)c3c[nH]c(=O)c4cc(S(C)(=O)=O)ccc34)CC2)c1Cl [Example 215, acetate salt]" unit_annotation=% assay_result=103
molecule=CN(C[C@@H](O)CN1CCC(Oc2ccc(Cl)c(Cl)c2)CC1)C(=O)c1c[nH]c(=O)c2ccccc12 unit_annotation=% assay_result=95

Which inhibition at 1 µM value is on record for O=C(NC[C@@H](O)CN1CCC(Oc2ccc(Cl)c(Cl)c2)CC1)c1n[nH]c(=O)c2ccccc12 ?
105
